Data origin, for the record: paper PMC9398170

biological target: DNA-PK (Homo sapiens); assay: DNA-PK Human PIKK Assay [Km ATP], KinaseProfiler; type: biochemical
Sequence (P78527 whole entry): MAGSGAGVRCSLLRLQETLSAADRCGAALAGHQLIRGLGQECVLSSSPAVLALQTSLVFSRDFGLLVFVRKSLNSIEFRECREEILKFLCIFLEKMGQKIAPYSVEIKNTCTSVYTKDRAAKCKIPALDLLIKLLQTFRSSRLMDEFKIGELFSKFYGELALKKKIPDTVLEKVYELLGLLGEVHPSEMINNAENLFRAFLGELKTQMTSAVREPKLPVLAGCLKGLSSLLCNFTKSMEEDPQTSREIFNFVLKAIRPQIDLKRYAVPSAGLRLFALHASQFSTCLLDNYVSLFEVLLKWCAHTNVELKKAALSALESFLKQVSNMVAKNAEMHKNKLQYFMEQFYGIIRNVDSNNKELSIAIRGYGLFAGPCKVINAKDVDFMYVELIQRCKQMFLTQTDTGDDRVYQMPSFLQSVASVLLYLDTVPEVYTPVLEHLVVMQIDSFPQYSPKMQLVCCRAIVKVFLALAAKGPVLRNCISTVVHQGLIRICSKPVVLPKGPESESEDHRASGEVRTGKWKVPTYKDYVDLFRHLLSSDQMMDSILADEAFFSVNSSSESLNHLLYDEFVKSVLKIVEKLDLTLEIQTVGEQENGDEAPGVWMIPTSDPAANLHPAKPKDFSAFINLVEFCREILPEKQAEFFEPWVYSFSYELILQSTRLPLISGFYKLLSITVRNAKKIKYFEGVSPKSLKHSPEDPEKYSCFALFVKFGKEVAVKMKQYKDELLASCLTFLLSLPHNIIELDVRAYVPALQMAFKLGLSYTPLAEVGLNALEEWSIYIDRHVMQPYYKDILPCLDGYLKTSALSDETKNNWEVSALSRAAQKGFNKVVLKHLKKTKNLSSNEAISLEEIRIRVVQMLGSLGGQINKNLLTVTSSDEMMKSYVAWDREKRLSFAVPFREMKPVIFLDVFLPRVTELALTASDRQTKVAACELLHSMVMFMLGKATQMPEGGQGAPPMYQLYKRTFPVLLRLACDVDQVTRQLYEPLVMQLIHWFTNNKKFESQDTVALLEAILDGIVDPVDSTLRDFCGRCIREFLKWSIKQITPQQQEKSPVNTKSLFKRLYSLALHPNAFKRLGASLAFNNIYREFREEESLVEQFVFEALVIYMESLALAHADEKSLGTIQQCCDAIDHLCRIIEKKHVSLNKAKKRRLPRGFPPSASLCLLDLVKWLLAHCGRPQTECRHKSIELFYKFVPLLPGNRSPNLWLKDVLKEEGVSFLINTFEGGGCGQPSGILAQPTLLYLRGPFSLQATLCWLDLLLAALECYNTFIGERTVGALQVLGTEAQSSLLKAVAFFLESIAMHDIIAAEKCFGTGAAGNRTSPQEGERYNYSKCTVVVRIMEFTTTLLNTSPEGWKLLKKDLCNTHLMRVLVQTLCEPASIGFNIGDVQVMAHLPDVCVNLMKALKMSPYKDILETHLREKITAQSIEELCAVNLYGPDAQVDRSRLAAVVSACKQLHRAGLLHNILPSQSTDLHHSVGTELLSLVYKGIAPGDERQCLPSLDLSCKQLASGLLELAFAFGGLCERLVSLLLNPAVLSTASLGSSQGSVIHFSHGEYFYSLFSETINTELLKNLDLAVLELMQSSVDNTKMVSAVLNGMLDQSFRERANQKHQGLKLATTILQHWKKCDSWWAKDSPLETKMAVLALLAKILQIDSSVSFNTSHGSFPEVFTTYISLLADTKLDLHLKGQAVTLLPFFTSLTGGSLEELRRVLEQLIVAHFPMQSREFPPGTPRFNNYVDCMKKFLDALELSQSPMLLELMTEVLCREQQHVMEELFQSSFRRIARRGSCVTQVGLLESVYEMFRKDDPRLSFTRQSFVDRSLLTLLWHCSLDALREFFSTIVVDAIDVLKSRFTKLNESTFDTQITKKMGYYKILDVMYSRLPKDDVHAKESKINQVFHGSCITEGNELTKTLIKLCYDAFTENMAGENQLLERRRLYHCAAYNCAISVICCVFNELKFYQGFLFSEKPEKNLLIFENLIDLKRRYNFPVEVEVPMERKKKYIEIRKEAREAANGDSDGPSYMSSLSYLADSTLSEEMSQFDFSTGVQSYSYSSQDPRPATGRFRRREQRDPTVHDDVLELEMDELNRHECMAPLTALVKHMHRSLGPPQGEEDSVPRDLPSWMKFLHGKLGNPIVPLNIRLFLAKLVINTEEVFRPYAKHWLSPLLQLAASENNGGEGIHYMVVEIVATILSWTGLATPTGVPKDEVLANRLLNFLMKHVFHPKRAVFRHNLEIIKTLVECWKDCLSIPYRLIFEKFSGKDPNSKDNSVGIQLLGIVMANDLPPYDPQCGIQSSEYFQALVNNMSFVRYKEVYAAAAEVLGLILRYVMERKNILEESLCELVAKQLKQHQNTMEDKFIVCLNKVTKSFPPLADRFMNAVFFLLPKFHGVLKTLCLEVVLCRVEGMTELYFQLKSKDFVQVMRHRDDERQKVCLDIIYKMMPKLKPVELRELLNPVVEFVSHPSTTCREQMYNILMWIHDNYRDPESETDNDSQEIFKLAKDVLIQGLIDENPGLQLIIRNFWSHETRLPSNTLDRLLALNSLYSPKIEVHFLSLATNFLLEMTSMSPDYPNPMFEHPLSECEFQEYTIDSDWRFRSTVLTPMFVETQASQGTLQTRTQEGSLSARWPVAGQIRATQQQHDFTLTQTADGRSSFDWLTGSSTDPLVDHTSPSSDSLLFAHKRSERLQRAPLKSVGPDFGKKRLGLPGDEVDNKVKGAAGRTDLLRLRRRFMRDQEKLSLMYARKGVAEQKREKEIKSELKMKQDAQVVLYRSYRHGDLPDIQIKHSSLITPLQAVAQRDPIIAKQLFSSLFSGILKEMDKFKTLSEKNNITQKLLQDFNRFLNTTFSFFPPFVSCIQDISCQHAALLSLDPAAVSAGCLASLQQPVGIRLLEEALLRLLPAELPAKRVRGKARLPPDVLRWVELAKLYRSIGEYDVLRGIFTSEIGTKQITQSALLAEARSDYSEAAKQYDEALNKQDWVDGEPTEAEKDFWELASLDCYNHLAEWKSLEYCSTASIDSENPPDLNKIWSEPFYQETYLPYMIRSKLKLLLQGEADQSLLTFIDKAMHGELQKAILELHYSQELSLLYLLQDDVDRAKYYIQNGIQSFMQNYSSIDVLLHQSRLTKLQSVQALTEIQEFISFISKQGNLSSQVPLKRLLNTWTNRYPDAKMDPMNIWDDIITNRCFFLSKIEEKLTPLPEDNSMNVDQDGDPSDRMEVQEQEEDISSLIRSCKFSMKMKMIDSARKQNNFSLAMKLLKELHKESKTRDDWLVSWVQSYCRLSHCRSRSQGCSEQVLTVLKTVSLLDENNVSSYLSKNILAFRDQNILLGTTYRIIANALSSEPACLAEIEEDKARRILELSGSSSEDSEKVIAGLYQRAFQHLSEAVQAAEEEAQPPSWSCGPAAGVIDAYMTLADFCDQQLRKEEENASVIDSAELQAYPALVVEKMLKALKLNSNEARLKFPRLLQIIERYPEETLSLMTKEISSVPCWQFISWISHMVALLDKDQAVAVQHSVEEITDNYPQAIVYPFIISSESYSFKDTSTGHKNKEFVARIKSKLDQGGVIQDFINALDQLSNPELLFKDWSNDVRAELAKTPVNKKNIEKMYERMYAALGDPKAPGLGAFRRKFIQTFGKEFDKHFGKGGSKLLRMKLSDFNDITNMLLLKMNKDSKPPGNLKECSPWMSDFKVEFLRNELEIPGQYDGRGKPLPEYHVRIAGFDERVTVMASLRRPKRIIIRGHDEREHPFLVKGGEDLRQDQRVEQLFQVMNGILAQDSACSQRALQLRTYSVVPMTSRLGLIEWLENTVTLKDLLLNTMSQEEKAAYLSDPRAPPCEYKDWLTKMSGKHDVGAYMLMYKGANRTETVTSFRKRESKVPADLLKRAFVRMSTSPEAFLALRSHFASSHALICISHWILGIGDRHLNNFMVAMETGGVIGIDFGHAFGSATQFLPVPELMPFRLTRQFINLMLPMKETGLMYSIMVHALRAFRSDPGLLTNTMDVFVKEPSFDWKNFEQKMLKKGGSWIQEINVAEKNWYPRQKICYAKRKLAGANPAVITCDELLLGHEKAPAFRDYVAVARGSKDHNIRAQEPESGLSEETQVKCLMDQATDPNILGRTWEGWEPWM
PROPERTY_NAME: pIC50
// returns pIC50 (minus log10 of molar concentration), number only

### Prompt Looking for the measured pIC50 of `C[C@@H]1COCCN1c1cc([C@]2(O)C[C@H]3CC[C@@H](C2)O3)c2cnn(-c3cc[nH]n3)c2n1` , can you help?
### Response 5.80

====

system: panel of cell lines with defective ATM or BRCA1/2 function; assay: Cell viability; type: cell-based; conditions: Homo sapiens, 120 h, read-out: Growth inhibitory IC50 in cell viability assays
PROPERTY_NAME: IC50

### Prompt Looking for the measured IC50 of `C[C@@H]1COCCN1c1cc([C@]2(O)C[C@H]3CC[C@@H](C2)O3)c2cnn(-c3cc[nH]n3)c2n1` , can you help?
### Response 8 to 64 nM

====

target: human ATR/ATRIP (Homo sapiens, UniProt Q13535); assay: ATR/ATRIP biochemical kinase assay
PROPERTY_NAME: Ki (nM)
The reply should contain only the number, in nM.

### Prompt Looking for the measured Ki of `C[C@@H]1COCCN1c1cc([C@]2(O)C[C@H]3CC[C@@H](C2)O3)c2cnn(-c3cc[nH]n3)c2n1` , can you help?
### Response 0.022

====

molecular target: DNA-PK (Homo sapiens); test: DNA-PK cellular assay: bleomycin-induced pDNA-PKcs; format: cell-based
PROPERTY_NAME: IC50

### Prompt Looking for the measured IC50 of `C[C@@H]1COCCN1c1cc([C@]2(O)C[C@H]3CC[C@@H](C2)O3)c2cnn(-c3cc[nH]n3)c2n1` , can you help?
### Response > 10 µM

====

target: ATM (Homo sapiens, UniProt Q13315); experiment: ATM cellular assay: bleomycin-induced pKAP1; format: cell-based
PROPERTY_NAME: IC50

### Prompt // fetch ATM (Homo sapiens, UniProt Q13315) IC50 for `C[C@@H]1COCCN1c1cc([C@]2(O)C[C@H]3CC[C@@H](C2)O3)c2cnn(-c3cc[nH]n3)c2n1`
### Response > 10 µM

====

target: mTOR (Homo sapiens, UniProt P42345); experiment: mTOR cellular assay: pP70S6K
PROPERTY_NAME: pIC50
// returns pIC50 (minus log10 of molar concentration), number only

### Prompt Looking for the measured pIC50 of `C[C@@H]1COCCN1c1cc([C@]2(O)C[C@H]3CC[C@@H](C2)O3)c2cnn(-c3cc[nH]n3)c2n1` , can you help?
### Response 7.96
